Target: Lanosterol synthase (Rattus norvegicus) (UniProt P48450)
Sequence (whole entry): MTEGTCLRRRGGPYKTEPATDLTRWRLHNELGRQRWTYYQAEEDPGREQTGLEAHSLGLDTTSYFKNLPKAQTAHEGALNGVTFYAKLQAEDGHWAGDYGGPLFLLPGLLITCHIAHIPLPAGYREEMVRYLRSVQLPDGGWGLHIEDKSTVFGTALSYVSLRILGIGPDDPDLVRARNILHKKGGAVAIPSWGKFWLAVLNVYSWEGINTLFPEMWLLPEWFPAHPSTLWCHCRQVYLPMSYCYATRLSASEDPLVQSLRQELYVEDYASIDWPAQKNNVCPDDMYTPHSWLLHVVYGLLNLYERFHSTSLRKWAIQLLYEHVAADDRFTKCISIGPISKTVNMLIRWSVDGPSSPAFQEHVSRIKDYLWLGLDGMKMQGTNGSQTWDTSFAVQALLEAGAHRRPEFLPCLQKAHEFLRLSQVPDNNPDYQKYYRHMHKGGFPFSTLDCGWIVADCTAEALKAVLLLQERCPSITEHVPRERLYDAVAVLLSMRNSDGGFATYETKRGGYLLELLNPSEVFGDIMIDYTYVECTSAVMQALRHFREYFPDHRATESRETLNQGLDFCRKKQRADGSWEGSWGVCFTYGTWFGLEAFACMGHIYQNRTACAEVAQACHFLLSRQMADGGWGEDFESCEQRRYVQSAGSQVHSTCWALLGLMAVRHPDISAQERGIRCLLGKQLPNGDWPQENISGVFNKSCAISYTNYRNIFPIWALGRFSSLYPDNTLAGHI
Test: The in vivo assay of compound for inhibition of cholesterol biosynthesis was measured on Oxidosqualene-lanosterol cyclase of rat at 5 mg/kg
So I've got a bunch of molecules here, and I need their inhibition values.

Here's what some known entries look like.
1. OC1(C#Cc2ccc(Oc3ccc(Br)cc3)cc2)CN2CCC1CC2 (centres undefined) = 55%
2. O=C(c1ccc(Br)cc1)c1ccc(C#CC2(O)CN3CCC2CC3)cc1 (centres undefined) = 59%
3. O=C(c1ccc(C(F)(F)F)cc1)N1CCC(=Cc2ccc(C3=NCCO3)cc2)CC1 = 98%

For every record below, what is its inhibition?
1. Brc1cccc(SC2CN3CCC2CC3)c1 (centres undefined)
2. O=S(=O)(c1ccc(Br)cc1)c1ccc(C#CC2(O)CN3CCC2CC3)cc1 (centres undefined)
3. [O-][S+](c1ccc(Br)cc1)c1ccc(C#CC2(O)CN3CCC2CC3)cc1 (centres undefined)

Output line:
1. < 5%
2. 94%
3. 83%

====

Give measured pIC50 for each item. Keep answers brief.
Target: Lanosterol synthase (Rattus norvegicus, UniProt P48450)
pIC50: −log10 of the molar value.

1) OC1(c2ccc(-c3ccccc3)cc2)CN2CCC1CC2 (configuration not stated) = < 7.00

Pending molecule:
Input line: Query: pIC50; subject: C=CCc1cc(CCC(=O)OCC)ccc1C#CC1(O)CN2CCC1CC2 (configuration not stated)
Output line: < 7.00

====

Biological target: Lanosterol synthase (Rattus norvegicus)
Assay: The in vivo assay of compound for inhibition of cholesterol biosynthesis was measured on Oxidosqualene-lanosterol cyclase of rat at 5 mg/kg
measure: inhibition (%)
Numbers only, in %.

1. OC1(C#Cc2ccc(Sc3ccc(Br)cc3)cc2)CN2CCC1CC2 (stereo not drawn) = 79

Input line: Value lookup for inhibition; key = Brc1ccc(SC2CN3CCC2CC3)cc1 (stereo not drawn)
Output line: 47
